# Assay Protocol: qHTS of pediatric cancer cell lines to identify multiple opportunities for drug repurposing: Primary screen for BT-12 cells (AID 1347101); further: nearly all actives have a fitted effect of over 25% in size
# Assay Conditions: BT-12 viability, CellTiter-Glo luminescence, 48 h; series mostly up to 57.3 µM
Inconclusive results are not listed. The source made the active and inactive calls. The call rests on the fitted dose curve; in most records, active means well fitted cell-killing curve with a large enough effect; inconclusive means small, poorly fitted or top-dose-only effect; inactive means flat fitted curve, though single readings scatter. Starred links: 1 amine or outer side, 2 acyl side, 3 side chain; linkers in the order of their positions; H or OH if unused. Positions of bridges follow the written chain, without caps; N, C: chain ends. Non-standard residues stand in square brackets, D forms with d. Residues, ends and D or L forms follow the SMILES beside them. Chains are numbered I, II in the order given. Actinocin(9to1) = Cc1c2oc3c(C)ccc(C(=O)[*:1])c3nc-2c(C(=O)[*:2])c(N)c1=O; NMeV = CN[CH](C(=O)O)C(C)C; Sar = CNCC(=O)O
Classes used: true (1) for active, false (0) for inactive

Molecule	Assigned Category
Cc1onc(-c2ccccc2)c1C(=O)N[C@@H]1C(=O)N2[C@@H](C(=O)O)C(C)(C)S[C@@H]12	false (0)
c1cc(N[C@@H]2CCNC2)nc(-c2cnc3ccc(-c4cn[nH]c4)cn23)c1	true (1)
CC(C)(N)c1ccc(-c2nc3ccccc3nc2-c2ccccc2)cc1	true (1)
O=C(C=Cc1ccc(CN(CCO)CCc2c[nH]c3ccccc23)cc1)NO	true (1)
C[N+]1(C)[C@@H]2C[C@@H](OC(=O)C(O)(c3cccs3)c3cccs3)C[C@H]1[C@@H]1O[C@@H]12	false (0)
Cc1cnc(Nc2ccc(CN3CCOCC3)cc2)nc1Nc1cccc(S(=O)(=O)NC(C)(C)C)c1	true (1)
CC(=CC(=O)Nc1ccccc1C(=O)O)c1ccc2ccccc2c1	false (0)
COC(=O)[C@@H]1[C@H]2C[C@@H]3c4[nH]c5ccccc5c4CCN3C[C@@H]2CC[C@@H]1O	false (0)
NC[C@H]1O[C@H](O[C@H]2[C@@H](O)[C@@H](O[C@H]3O[C@H](CO)[C@@H](O)[C@H](N)[C@@H]3O)[C@H](N)C[C@@H]2N)[C@H](N)C[C@H]1O	false (0)
Oc1ccc([C@@H]2Oc3ccc(O)cc3[C@@H]3CCC[C@@H]32)cc1	true (1)
c1ccc(CNc2nc(NCc3ccccc3)c3ccccc3n2)cc1	true (1)
COc1cc([C@@H]2c3cc4c(cc3[C@@H](O[C@@H]3O[C@@H]5CO[C@@H](c6cccs6)O[C@@H]5[C@H](O)[C@@H]3O)[C@H]3COC(=O)[C@H]23)OCO4)cc(OC)c1O	true (1)
C=C1C(=CC=C2CCC[C@]3(C)[C@@H]([C@H](C)CCCC(C)(C)O)CC[C@@H]23)C[C@@H](O)C[C@@H]1O	true (1)
Cc1ccc2nc(NCCN)c3ncc(C)n3c2c1	true (1)
COc1ccc(Nc2cc(-c3cnc(N)nc3)nc(N3CCOCC3)n2)cn1	true (1)
O=C(Nc1cccc(Nc2ncc(Br)c(NCCc3cnc[nH]3)n2)c1)N1CCCC1	true (1)
CCN(CC)CCNC(=O)c1c(C)[nH]c(C=C2C(=O)Nc3ccc(F)cc32)c1C	true (1)
CCOC(=O)C1=C(C)NC(=S)NC1c1cccc(O)c1 (stereo unspecified)	true (1)
Cn1cc(C2=C(c3c4n(c5ccccc35)CCC(CN)C4)C(=O)NC2=O)c2ccccc21 (stereo unspecified)	true (1)
OCC(O)C(O)C(O)CO (stereo unspecified)	false (0)
CCOC(=O)[C@@H](N)Cc1ccc(-c2cc(O[C@H](c3ccc(Cl)cc3-n3ccc(C)n3)C(F)(F)F)nc(N)n2)cc1	true (1)
O=C(O)CCCCC(CCSCc1ccccc1)SCc1ccccc1 (stereo unspecified)	false (0)
Cc1c2oc3c(C)ccc(C(=O)NC4C(=O)NC(C(C)C)C(=O)N5CCCC5C(=O)N(C)CC(=O)N(C)C(C(C)C)C(=O)OC4C)c3nc-2c(C(=O)NC2C(=O)NC(C(C)C)C(=O)N3CCCC3C(=O)N(C)CC(=O)N(C)C(C(C)C)C(=O)OC2C)c(N)c1=O (stereo unspecified) (I: TVP[Sar][NMeV] / II: TVP[Sar][NMeV]; ester I:1-I:C, II:1-II:C; linker I:N-II:N via Actinocin(9to1); configuration not given here)	true (1)
COc1ccc(S(=O)(=O)Nc2cc(-c3c(O)ccc4ccccc34)c(O)c3ccccc23)cc1	true (1)
O=C(O)C(=O)Nc1cccc(C2=NN=N[N]2)c1	false (0)
CC(=O)C1=C(O)C=C2Oc3c(C(C)=O)c(O)c(C)c(O)c3C2(C)C1=O (stereo unspecified)	true (1)
Nc1nc(N)c2nc(-c3cccc(O)c3)c(-c3cccc(O)c3)nc2n1	true (1)
COC(=O)[C@H](CCCN=C(N)N)NS(=O)(=O)c1ccc(C)cc1	false (0)
OCCNC1CCCc2c1[nH]c1ccc(-c3ccccc3)cc21 (stereo unspecified)	true (1)
NC(=O)c1ncn([C@@H]2O[C@H](CO)[C@@H](O)[C@@H]2O)c1O	false (0)
N#CNC(=NCCCCCCOc1ccc(Cl)cc1)Nc1ccncc1	true (1)

----------
// values below are reported parasite growth remaining, % of DMSO control (lower = more inhibition)
# Assay Protocol: qHTS profiling of the MIPE4 collection as inhibitors of Plasmodium falciparum (DD2) proliferation (AID 743345)
# Assay Conditions: P. falciparum Dd2 in erythrocytes, SYBR Green DNA, 72 h; at 28.5 µM (top of the series) unless noted
Recorded Metric: parasite growth remaining, % of DMSO control (lower = more inhibition) (%)

Compound	Experimental Value
C[C@H](NCc1ccc2c(c1)nc(NC(=O)c1ccc(-c3cn[nH]c3)s1)n2CCc1ccccc1)C(C)(C)C	4.87
O=c1[nH]c(=O)n([C@H]2C[C@@H](O)[C@@H](CO)O2)cc1F	79.8
COc1ccc2c(c1OC)C(=O)OC2[C@H]1c2c(cc3c(c2OC)OCO3)CCN1C (some centres undefined)	20.7

----------
# Assay Protocol: Quantitative High-Throughput drug screen in 47 multiple myeloma cell lines against the NCATS MIPE library collection: OCIMY7_PLB cell viability assay (AID 1918987); further: nearly all actives have a fitted effect of over 65% in size
# Assay Conditions: OCI-MY7 myeloma viability, CellTiter-Glo ATP, 48 h
Inconclusive results are not listed. The source made the active and inactive calls. Calls follow the shape of the dose curve; as a rule, active = well fitted cell-killing curve with a large enough effect; inconclusive = small, poorly fitted or top-dose-only effect, or effect the other way; inactive = no such curve, though single readings can be large or run the other way. Non-standard residues stand in square brackets, D forms with d. Residues, ends and D or L forms follow the SMILES beside them. *: point of attachment. Nva = CCC[C@H](N)C(=O)O; Cbz = O=C(OCc1ccccc1)*
Outcome codes: T = active, F = inactive

Molecule	Assigned Category
CCc1cnn2c(NCc3ccc[n+]([O-])c3)cc(N3CCCC[C@@H]3CCO)nc12	T
CCCCOc1ccc(C(=O)Nc2ccc(F)cc2F)cc1	T
COc1ccc(Nc2cc(-c3cnc(N)nc3)nc(N3CCOCC3)n2)cn1	T
c1ccc(CNc2nc(NCc3ccccc3)c3ccccc3n2)cc1	T
CC(C)(O)CC[C@@H](O)[C@](C)(O)[C@H]1CC[C@@]2(O)C3=CC(=O)[C@@H]4C[C@@H](O)[C@@H](O)C[C@]4(C)[C@@H]3CC[C@]12C	F
C=CC(=O)Nc1cccc(Nc2nc(NC3CCC(N(C)C)CC3)nc3c2ncn3C(C)C)c1 (centres undefined)	T
COc1ccc(S(=O)(=O)Nc2cccnc2Nc2ccc(O)cc2)cc1	T
COC[C@H](NC(=O)c1cnc(C)s1)C(=O)N[C@@H](COC)C(=O)N[C@@H](Cc1ccccc1)C(=O)[C@@]1(C)CO1	T
CN(C)CC(=O)N1CCC(c2ccc(NC(=O)c3ncc(C#N)[nH]3)c(C3=CCCCC3)c2)CC1	T
OCc1ccccc1O[C@@H]1O[C@H](CO)[C@H](O)[C@H](O)[C@H]1O	T
Cc1ccc2nc(NCCN)c3ncc(C)n3c2c1	T
CC(C)(C)c1nc2c3cc[nH]c(=O)c3c3cc(F)ccc3c2[nH]1	T
C[C@]12CC[C@@H]3c4ccc(O)cc4CC[C@H]3[C@H]1CC[C@H]2O	T
COC(=O)C1C2CC3c4[nH]c5cc(OC)ccc5c4CCN3CC2CC(OC(=O)c2cc(OC)c(OC)c(OC)c2)C1OC (centres undefined)	T
N[C@H]1CN(c2c(F)cc3c(=O)c(C(=O)O)cn(C4C[C@@H]4F)c3c2Cl)CC12CC2 (some centres undefined)	F
C[C@H]1COc2c(N3CCN(C)CC3)c(F)cc3c(=O)c(C(=O)O)cn1c23	F
CCN1CCN(C(=O)N[C@H](C(=O)N[C@@H]2C(=O)N3C(C(=O)O)=C(CSc4nnnn4C)CS[C@@H]23)c2ccc(O)cc2)C(=O)C1=O	F
CCNC(=O)c1cc2c(-c3cc(OCCN4CCCC4)c(Cl)cc3Cl)nc(N)nc2s1	T
Cc1onc(-c2ccccc2)c1C(=O)N[C@@H]1C(=O)N2[C@@H](C(=O)O)C(C)(C)S[C@@H]12	F
CCc1c(O)cc(O)c(C(=O)c2ccc(OCCN3CCOCC3)c(OC)c2)c1CC(=O)N(CCOC)CCOC	T
NC(=O)Nc1cc(-c2ccc(CN3CCOCC3)cc2)sc1C(N)=O	T
N#Cc1c(NC(=O)c2cccc3ccccc23)sc2c1CCCC2	T
CCC[C@@H](C=O)NC(=O)[C@H](CC(C)C)NC(=O)[C@H](CC(C)C)NC(=O)OCc1ccccc1 (Cbz-Leu-Leu-[Nva]-aldehyde)	T
CC(C)[C@H](CO)Nc1nc(Nc2cccc(Cl)c2)c2ncn(C(C)C)c2n1	T
CC(=O)O[C@@]12CO[C@H]1C[C@H](O)[C@@]1(C)C(=O)[C@H](O)C3=C(C)[C@@H](OC(=O)C(O)[C@@H](NC(=O)OC(C)(C)C)c4ccccc4)C[C@@](O)([C@@H](OC(=O)c4ccccc4)[C@@H]21)C3(C)C (some centres undefined)	F
CCCCCCCCc1ccc(CCC(N)(CO)CO)cc1	T
N#CC(=C(N)Sc1ccc(N)cc1)c1ccccc1C(F)(F)F	T
CC(=O)SCC(Cc1ccccc1)C(=O)NCC(=O)OCc1ccccc1 (centres undefined)	T
Nc1ccc(C(=O)Nc2cccc(-c3nc(N4CCOCC4)c4oc5ncccc5c4n3)c2)cn1	T
